Target: FGR (Homo sapiens)
Sequence (P09769 whole entry): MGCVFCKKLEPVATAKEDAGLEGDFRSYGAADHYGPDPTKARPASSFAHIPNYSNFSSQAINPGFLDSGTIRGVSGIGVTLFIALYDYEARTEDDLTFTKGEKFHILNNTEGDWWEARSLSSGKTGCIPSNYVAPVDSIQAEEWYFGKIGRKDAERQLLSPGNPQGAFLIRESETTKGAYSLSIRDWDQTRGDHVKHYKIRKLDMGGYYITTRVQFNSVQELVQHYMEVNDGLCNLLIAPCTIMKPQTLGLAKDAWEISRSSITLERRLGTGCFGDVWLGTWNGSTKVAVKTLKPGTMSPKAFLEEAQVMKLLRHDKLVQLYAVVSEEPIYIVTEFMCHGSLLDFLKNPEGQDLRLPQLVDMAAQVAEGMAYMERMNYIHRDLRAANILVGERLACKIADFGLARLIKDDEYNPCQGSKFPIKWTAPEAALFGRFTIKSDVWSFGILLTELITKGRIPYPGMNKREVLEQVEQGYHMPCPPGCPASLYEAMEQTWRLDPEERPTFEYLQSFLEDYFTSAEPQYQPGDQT
endpoint_name: Kd
A bare number is not enough; add the unit after it.

Identify Kd associated with the molecule CCN1CCN(Cc2ccc(NC(=O)c3ccc(C)c(C#Cc4cnc5c(Nc6cnn(C)c6)cccn45)c3)cc2C(F)(F)F)CC1
13 nM

----------
Target: T315I (Ba/F3) (Homo sapiens, UniProt P00519, T315I, cells depend on it)
Construct: fused on or other part: P11274 (Breakpoint cluster region protein)
Test: Cancer cell proliferation inhibition, CCK-8, 72 hours
Format: cell-based
Settings: read-out: T315I (Ba/F3) IC50
endpoint_name: GI50 (nM)
Dear colleague, please return just the value in nM, with no unit written.

Tell me measured GI50 for CCn1cc(Nc2cccn3c(C#Cc4cc(C(=O)Nc5ccc(N6CCOCC6)c(F)c5)ccc4C)cnc23)cn1 please.
1140

Indicate its recorded GI50; the compound in question is Cc1ccc(C(=O)Nc2ccc(CN3CCN(C)CC3)c(C(F)(F)F)c2)cc1C#Cc1cnc2c(Nc3cc4n(n3)CCNC4)cccn12
170

Tell me GI50 reported for CCn1cc(Nc2cccn3c(C#Cc4cc(C(=O)Nc5ccc(CN6CCN(C)CC6)c(C(F)(F)F)c5)ccc4C)cnc23)cn1
37.5

----------
Assign GI50 to each entry below.
Molecular target: T315I (Ba/F3) (Homo sapiens, UniProt P00519, T315I, cells depend on it)
Construct: fused on or other part: P11274 (Breakpoint cluster region protein)
Experiment: Cancer cell proliferation inhibition, CCK-8, 72 hours
Format: cell-based
Settings: read-out: T315I (Ba/F3) IC50
// return numeric value only (unit: nM, not printed)

Enter measured GI50, system T315I (Ba/F3) (Homo sapiens, UniProt P00519, T315I, cells depend on it), for the compound shown: COCCn1cc(Nc2cccn3c(C#Cc4cc(C(=O)Nc5ccc(CN6CCN(C)[C@@H](C)C6)c(C(F)(F)F)c5)ccc4C)cnc23)cn1
42.2

Answer briefly: GI50 recorded on T315I (Ba/F3) (Homo sapiens, UniProt P00519, T315I, cells depend on it) for CCN1CCN(Cc2ccc(NC(=O)c3ccc(C)c(C#Cc4cnc5c(Nc6ccc(C)cc6)cccn45)c3)cc2C(F)(F)F)CC1
619

With T315I (Ba/F3) (Homo sapiens, UniProt P00519, T315I, cells depend on it) as the test system, provide measured GI50 for this compound: Cc1ccc(C(=O)Nc2ccc(CN3CCN(C)CC3)c(C(F)(F)F)c2)cc1C#Cc1cnc2c(Nc3cccc(C(C)(C)O)n3)cccn12
75

State recorded GI50 with T315I (Ba/F3) (Homo sapiens, UniProt P00519, T315I, cells depend on it), entry Cc1ccc(NC(=O)Nc2cccc(C(F)(F)F)c2)cc1C#Cc1cnc2c(Nc3cnn(C(C)C)c3)cccn12 , no comment.
627

Report the value of GI50 obtained on T315I (Ba/F3) (Homo sapiens, UniProt P00519, T315I, cells depend on it) for Cc1ccc(C(=O)Nc2ccc(Cl)c(C(F)(F)F)c2)cc1C#Cc1cnc2c(Nc3cnn(C4CCNCC4)c3)cccn12 .
374

State GI50 (T315I (Ba/F3) (Homo sapiens, UniProt P00519, T315I, cells depend on it)) of Cc1ccc(C(=O)Nc2ccc(CN3CCN(C)CC3)c(C(F)(F)F)c2)cc1C#Cc1cnc2c(Nc3ccccc3N)cccn12 .
1210

----------
Please go through the items and note down their log10 GI50.
Biological target: T315I (Ba/F3) (Homo sapiens, UniProt P00519, T315I, cells depend on it)
Construct: fused on or other part: P11274 (Breakpoint cluster region protein)
Test: Cancer cell proliferation inhibition, CCK-8, 72 hours
Assay type: cell-based
Settings: read-out: T315I (Ba/F3) IC50
Heads up: the numbers are on a log10 scale; they represent GI50 in nM.

Input CCN1CCN(Cc2ccc(NC(=O)c3ccc(C)c(C#Cc4cnc5c(Nc6cnn(C)c6)cccn45)c3)cc2C(F)(F)F)CC1 , output reported log10 GI50.
1.51

Report measured log10 GI50; entry is Cc1ccc(Nc2cccn3c(C#Cc4cc(C(=O)Nc5ccc(CN6CCN(C)CC6)c(C(F)(F)F)c5)ccc4C)cnc23)nc1
2.37

Report measured log10 GI50; entry is Cc1ccc(C(=O)Nc2ccc(CN3CCN(C)[C@H](C)C3)c(C(F)(F)F)c2)cc1C#Cc1cnc2c(Nc3cnn(C(C)C)c3)cccn12 [Example 81]
2.28

Give reported log10 GI50 value for Cc1ccc(C(=O)Nc2ccc(CN3CC[C@@H](N(C)C)C3)c(C(F)(F)F)c2)cc1C#Cc1cnc2c(Nc3cnn(C)c3)cccn12
1.45

In one line, give reported log10 GI50 of the entry Cc1ccc(C(=O)Nc2ccc(CN3CCC(N(C)C)C3)c(C(F)(F)F)c2)cc1C#Cc1cnc2c(Nc3cnn(C(C)C)c3)cccn12 (centres unmarked) .
2.10

Report log10 GI50 for COCCCn1cc(Nc2cccn3c(C#Cc4cc(C(=O)Nc5ccc(CN6CCN(C)[C@H](C)C6)c(C(F)(F)F)c5)ccc4C)cnc23)cn1
2.09

// fetch log10 GI50 given entry Cc1ccc(C(=O)Nc2ccc(CN3CCN(C)CC3)c(C(F)(F)F)c2)cc1C#Cc1cnc2c(Nc3ncccc3F)cccn12
1.74

# return recorded log10 GI50 for entry Cc1ccc(C(=O)Nc2ccc(CN3CCN(C)[C@@H](C)C3)c(C(F)(F)F)c2)cc1C#Cc1cnc2c(Nc3cnn(CCCN(C)C)c3)cccn12
2.34

// fetch log10 GI50 given entry COCCCn1cc(Nc2cccn3c(C#Cc4cc(C(=O)Nc5ccc(CN6CCN(C)[C@@H](C)C6)c(C(F)(F)F)c5)ccc4C)cnc23)cn1
0.80

Annotate the molecule CCN1CCN(Cc2ccc(NC(=O)c3ccc(C)c(C#Cc4cnc5c(Nc6cnn(C(C)C)c6)cccn45)c3)cc2C(F)(F)F)CC1 with its measured log10 GI50.
1.68

Please list log10 GI50 recorded for the molecule Cc1ccc(C(=O)Nc2ccc(CN3CCC(N(C)C)C3)c(C(F)(F)F)c2)cc1C#Cc1cnc2c(Nc3cnn(C)c3)cccn12 (centres unmarked)
1.78

Quickly give me recorded log10 GI50 for Cc1ccc(NC(=O)C2(C(=O)Nc3ccc(F)cc3)CC2)cc1C#Cc1cnc2c(Nc3cnn(C(C)C)c3)cccn12
3.51

Assign log10 GI50 to the following record: Cc1ccc(NC(=O)Nc2cc(C(C)(C)C)on2)cc1C#Cc1cnc2c(Nc3cnn(C(C)C)c3)cccn12
3.49

Name the recorded log10 GI50 of the item Cc1ccc(C(=O)Nc2ccc(CN3CCN(C)[C@H](C)C3)c(C(F)(F)F)c2)cc1C#Cc1cnc2c(Nc3cnn(C(C)C)c3)cccn12 [Example 29] in your answer.
2.01

Tell me log10 GI50 reported for Cc1ccc(C(=O)Nc2cccc(C(F)(F)F)c2)cc1C#Cc1cnc2c(Nc3cnn(C)c3)cccn12
0.85

Give the value of log10 GI50 reported for the following: Cc1ccc(C(=O)Nc2ccc(CN3CCN(C)CC3)c(C(F)(F)F)c2)cc1C#Cc1cnc2c(Nc3ccn(C)n3)cccn12
1.61

Determine its reported log10 GI50: CCn1cc(Nc2cccn3c(C#Cc4cc(C(=O)Nc5ccc(CN6CC[C@@H](N(C)C)C6)c(C(F)(F)F)c5)ccc4C)cnc23)cn1
0.43

Look up log10 GI50 of CCN1CCN(Cc2ccc(NC(=O)c3ccc(C)c(C#Cc4cnc5c(Nc6cnn(CCCN(C)C)c6)cccn45)c3)cc2C(F)(F)F)CC1 and report it.
2.19

Specify reported log10 GI50 for the molecule shown: CCN1CCN(Cc2ccc(NC(=O)c3ccc(C)c(C#Cc4cnc5c(Nc6ccc(C)cn6)cccn45)c3)cc2C(F)(F)F)CC1
2.17

Look up and state reported log10 GI50 for COCCn1cc(Nc2cccn3c(C#Cc4cc(C(=O)Nc5cc(C(C)(C)C(F)(F)F)on5)ccc4C)cnc23)cn1
1.51

Please report log10 GI50 for the following molecule: Cc1cn(-c2cc(NC(=O)c3ccc(C)c(C#Cc4cnc5c(Nc6cnn(CCN(C)C)c6)cccn45)c3)cc(C(F)(F)F)c2)cn1
2.17

Tell me log10 GI50 reported for Cc1ccc(C(=O)Nc2ccc(CN3CCN(C)[C@H](C)C3)c(C(F)(F)F)c2)cc1C#Cc1cnc2c(Nc3cnn(CCCN(C)C)c3)cccn12
2.92

Provide only the value of recorded log10 GI50 for Cc1ccc(C(=O)Nc2cccc(C(F)(F)F)c2)cc1C#Cc1cnc2c(Nc3cnn(CCCN(C)C)c3)cccn12
1.78

----------
Tested on: RET (LC2/ad-CDC6)
Assay: Cancer cell proliferation inhibition, MTS assay, 72 hours
Type: cell-based
endpoint_name: IC50

# return recorded IC50 for entry Cc1ccc(C(=O)Nc2ccc(CN3CCN(C)[C@H](C)C3)c(C(F)(F)F)c2)cc1C#Cc1cnc2c(Nc3cnn(C(C)C)c3)cccn12 [Example 29]
< 100 nM

----------
Test system: GIST-T1
Experiment: Cancer cell proliferation inhibition, cell viability after 72 hours
Assay type: cell-based
Conditions: Homo sapiens, GISTT1, imatinib-sensitive
Experimental: MTS assay was performed to evaluate the cancer cell proliferation inhibition (cancer cell apoptosis) effect of the compounds of examples of the present invention. Particularly, the assay was performed using the cancer cell lines GIST-T1, GIST-T1/816, GIST-430, GIST-430/654, GIST-R1, GIST-R3, M-NFS-60, RetParental (Ba/F3), Retwt (Ba/F3), RetV804M (Ba/F3), RET (LC2/ad-CDC6), FYN (MCP-1), FYN (FN), MDA-MB-231, Huh7, K562, T315I(Ba/F3), SK-MEL-28 and A375. […]
So basically: is IC50 under 3 nM? Then YES. Not under? Then NO.

# check: IC50 < 3 nM for Cc1ccc(C(=O)Nc2ccc(CN3CCN(C)CC3)c(C(F)(F)F)c2)cc1C#Cc1cnc2c(Nc3ccn(C)n3)cccn12
NO

API: query returns whether the molecule falls strictly under 3 nM in IC50. Query: CCN1CCN(Cc2ccc(NC(=O)c3ccc(C)c(C#Cc4cnc5c(Nc6cnn(CCOC)c6)cccn45)c3)cc2C(F)(F)F)CC1
YES

Strictly below 3 nM: is that where IC50 of Cc1ccc(C(=O)Nc2ccc(CN3CCN(C)CC3)c(C(F)(F)F)c2)cc1C#Cc1cnc2c(Nc3cnn(C)c3)cccn12 sits?
YES

# check: IC50 < 3 nM for Cc1cn(-c2cc(NC(=O)c3ccc(C)c(C#Cc4cnc5c(Nc6cnn(C)c6)cccn45)c3)cc(C(F)(F)F)c2)cn1
NO

Here's an entry: Cc1ccc(C(=O)Nc2ccc(Cl)c(C(F)(F)F)c2)cc1C#Cc1cnc2c(Nc3cnn(C)c3)cccn12 . Is its IC50 below 3 nM?
NO

Is 3 nM strictly greater than the molecule's reported IC50? molecule: Cc1cc(Nc2cccn3c(C#Cc4cc(C(=O)Nc5ccc(CN6CCN(C)CC6)c(C(F)(F)F)c5)ccc4C)cnc23)no1
NO

Check if IC50 falls below 3 nM for COCCn1cc(Nc2cccn3c(C#Cc4cc(C(=O)Nc5ccc(CN6CCC(N(C)C)C6)c(C(F)(F)F)c5)ccc4C)cnc23)cn1 (stereo not shown) .
YES

meta.source: patent US10870647B2
